Please go through the items and note down their Antibiotic MIC.
System: clinical isolates of MSSA (methicillin sensitive S. aureus)
Format: cell-based
Conditions: isolate MSSA-11
Value expressed in µg/mL; do not type the unit.

Record summary for CCCCCCCCCCN1C(=O)/C(=C(/C)O)C(=O)[C@@H]1CC(C)C [Compound 13b] : reported Antibiotic MIC = 0.8

Record summary for CCCCN1C(=O)/C(=C(/C)O)C(=O)[C@@H]1CC(C)C [Compound 13j] : reported Antibiotic MIC = 12.5

Record summary for C/C(O)=C1\C(=O)[C@H](CC(C)C)N(Cc2ccc(-c3ccccc3)cc2)C1=O [Compound 13k] : reported Antibiotic MIC = 1.6

Record summary for CCCCCCCCCCN1C(=O)/C(=C(/C)O)C(=O)[C@@H]1Cc1ccccc1 [Compound 13n] : reported Antibiotic MIC = 0.8

Origin of values: patent US8552208B2
